Please find below Ki measurements for Alpha-1A adrenergic receptor (Rattus norvegicus, UniProt P43140), combined from several publications.
# value in nM; strip the unit string

[in] Can you share its Ki? I mean this molecule: CCCS(=O)(=O)Nc1c(O)ccc2c1CCCC2C1=NCCN1 (stereo unspecified)
[out] 776

[in] Would you mind doing COc1cc2[nH]c(=O)n(CCN3C[C@@H]4CCc5c(OC)cccc5[C@@H]4C3)c(=O)c2s1 as well?
[out] 0.04

[in] Consider next the molecule O=C1C2CCCN2C(=O)N1CCCN1CCN(c2cccc(C(F)(F)F)c2)CC1 (stereo unspecified) in the same way.
[out] 109

[in] Also check COc1cccc2c1CC[C@H]1CN(CCn3c(=O)[nH]c4cccnc4c3=O)C[C@@H]21
[out] 3.58

[in] Try this molecule next: COc1ccc2[nH]c(=O)n(CCN3C[C@@H]4CCc5c(OC)cccc5[C@@H]4C3)c(=O)c2c1
[out] 1.02

[in] Try the molecule O=C1C2CCCN2C(=O)N1CCCCN1CCN(c2cccc(Cl)c2)CC1 (stereo unspecified)
[out] 9.6

[in] Entry to check: O=C(NCCCCN1CCN(c2ccc(Cl)cc2Cl)CC1)c1cc2ccccc2cn1
[out] 629

[in] For COc1ccccc1N1CCN(C[C@H]2CN=C3c4ccccc4N=C(SC)N32)CC1 then?
[out] 1.5

[in] Can you check COc1cccc2c1CC[C@H]1CN(CCn3c(=O)[nH]c4c(OC)c(OC)ccc4c3=O)C[C@@H]21 next?
[out] 0.04

[in] Can you handle COc1ccccc1N1CCN(CCCCN2C(=O)C3CCCN3C2=O)CC1 (stereo unspecified) next?
[out] 8.3

[in] Now consider O=C(NCCCCN1CCN(c2ccc(Cl)cc2Cl)CC1)c1cc2ccccc2o1 .
[out] 779

[in] Quick one: CCS(=O)(=O)Nc1cccc2c1CCCC2CNC (stereo unspecified)
[out] 1380

[in] Check COc1ccccc1N1CCN(CCCn2c(=O)[nH]c3scc(-c4ccccc4)c3c2=O)CC1 too.
[out] 9.58

[in] Input O=C(NC1CCc2ccc(CCN3CCN(c4nsc5ccccc45)CC3)cc21)c1cccnc1 (stereo unspecified)
[out] 3.31

[in] Another: COc1ccccc1N1CCN(CCn2c(=O)[nH]c3sccc3c2=O)CC1
[out] 0.523

[in] Next molecule up: CC(C)C(=O)NC1CCc2ccc(CCN3CCN(c4nsc5ccccc45)CC3)cc21 (stereo unspecified)
[out] 3.61

[in] Follow-up entry: O=C(NC1CCc2cc(CCN3CCN(c4nsc5ccccc45)CC3)ccc21)C(F)(F)F (stereo unspecified)
[out] 0.3

[in] Moving on to CCS(=O)(=O)Nc1cccc2c1CCCC2CN (stereo unspecified)
[out] 794

[in] // query: c1ccc2c(C3CCN(CCCn4cccc4)CC3)c[nH]c2c1
[out] 86

[in] Continue with c1ccc2c(C3CCN(CCCN4CCCCC4)CC3)noc2c1
[out] 57
